Target: Nuclear receptor subfamily 1 group I member 2 (Homo sapiens) (UniProt O75469)
Test: Human pregnane X receptor (PXR) activation by small molecules, qHTS assay (AID 1346985); also: nearly all actives have a fitted effect of over 40% in size; as to activation: % is scaled to controls: 0 for no effect and ±100 for the full control effect
Conditions: DPX-2 HepG2 CYP3A4-luciferase, 24 h; series mostly up to 38.3 µM
Results filed as inconclusive are left out. Calls of active or inactive are those of the source. Calls follow the shape of the dose curve; as a rule, active = well fitted activation curve with a large enough effect in the repeat runs; inconclusive = weak or mixed curves; inactive = flat fitted curve, though single readings scatter.
Permitted responses: active, inactive

Worked set:
| COMPOUND | ASSIGNED_CATEGORY |
| --- | --- |
| Cc1cc(/C=C/c2ccc3cc(N(C)C)ccc3[n+]2C)c(C)n1-c1ccccc1 | inactive |
| CCC(=O)OCC(=O)[C@@]1(OC(=O)CC)[C@H](C)C[C@H]2[C@H]3[C@H]([C@@H](O)C[C@@]21C)[C@@]1(C)C=CC(=O)C=C1C[C@H]3Cl | inactive |
| O=C1CCC(=O)N1CO | inactive |
| NC(=O)OC[C@@H]1[C@H](NC(=O)/C(=N\OCC(=O)O)c2csc(N)n2)C(=O)N1S(=O)(=O)O | inactive |
| FC(F)(F)C(F)(F)C(F)(F)C(F)(F)C(F)(F)C(F)(F)F | inactive |

Q: Which outcome did this test record for the compound COc1cc([C@@H]2c3cc4c(cc3C(O[C@@H]3O[C@@H]5COC(c6cccs6)O[C@H]5[C@H](O)[C@H]3O)C3COC(=O)[C@@H]32)OCO4)cc(OC)c1O (some centres undefined) ?
Ans: active

Q: Which outcome did this test record for the compound O=C1c2ccccc2C(=O)C1c1ccc(Cl)cc1 ?
Ans: inactive

Q: Which outcome did this test record for the compound O=C(Nc1ccc(O)cc1)c1ccccc1O ?
Ans: inactive

Q: Which outcome did this test record for the compound O=C(O)CC/C=C\CC[C@@H]1[C@@H](N2CCCCC2)[C@@H](O)C[C@@H]1OCc1ccc(-c2ccccc2)cc1 ?
Ans: inactive

====

Assay: qHTS assay to identify small molecule that activate the aryl hydrocarbon receptor (AhR) signaling pathway - cell viability counter screen (AID 743086); also: nearly all actives have a fitted effect of over 45% in size
Conditions: HepG2-AhR-luc viability, CellTiter-Fluor, 24 h; series mostly up to 70.3 µM
Results filed as inconclusive are left out. Activity calls are given as the source filed them. Calls follow the shape of the dose curve; as a rule, active = well fitted cell-killing curve with a large enough effect in the repeat runs; inconclusive = weak or mixed curves, or effect the other way; inactive = flat fitted curve, though single readings scatter.
Permitted responses: 1 (yes) = active, 0 (no) = inactive

Worked set:
| MOLECULE | ASSIGNED_CATEGORY |
| --- | --- |
| CCCCCCCCCCCCCCCCCCOP(=O)([O-])OC1CC[N+](C)(C)CC1 | 0 (no) |
| CSc1nc2cc(Oc3cccc(Cl)c3Cl)c(Cl)cc2[nH]1 | 0 (no) |
| Clc1cc(Cl)c(OCC#CI)cc1Cl | 1 (yes) |
| O=[N+]([O-])O[C@@H]1CO[C@H]2[C@@H]1OC[C@@H]2O | 0 (no) |
| CC(C)CCCC(C)NC(C)C (stereo unspecified) | 0 (no) |

Q: Which outcome did this test record for the molecule CC(C)(C)NC[C@H](O)COc1ccccc1C1CCCC1 ?
Ans: 0 (no)

Q: Which outcome did this test record for the molecule CC1(C)[C@@H]2CC[C@@]1(C)[C@H](OC(=O)CSC#N)C2 ?
Ans: 0 (no)

====

Experiment: qHTS assay to test for compound auto fluorescence at 590 nm (red) in HepG2 cells (AID 720674); also: % is scaled to controls: 0 for no effect and ±100 for the full control effect
Settings: HepG2 autofluorescence, red 540/590 nm, 1 h; series mostly up to 46 µM
Active and inactive are the calls of the source. Calls come from the whole dose curve; as a rule, active = well fitted curve in the direction sought with a large enough effect in the repeat runs; inconclusive = weak or mixed curves; inactive = flat fitted curve, though single readings scatter.
ASSAY_METRIC: outcome

Consider the worked cases shown below.
| MOLECULE | outcome |
| --- | --- |
| O=C1NC(=O)[C@H]2[C@@H]1[C@@H]1C=C[C@H]2C1 | inactive |
| C#C[C@]1(O)CC[C@H]2[C@@H]3CCC4=CC(=O)CC[C@@H]4[C@H]3C(=C)C[C@@]21CC | inactive |
| CCN(CC)CCOc1ccc(-c2nc3cc(Cl)ccc3s2)cc1 | inactive |
| Cc1nc(NS(=O)(=O)c2ccc(N)cc2)nc(C)c1Br | inactive |
| CCNC(=O)[C@@H]1CCCN1C(=O)[C@H](CCCN=C(N)N)NC(=O)[C@H](CC(C)C)NC(=O)[C@@H](Cc1c[nH]c2ccccc12)NC(=O)[C@H](Cc1ccc(O)cc1)NC(=O)[C@H](CO)NC(=O)[C@H](Cc1c[nH]c2ccccc12)NC(=O)[C@H](Cc1cnc[nH]1)NC(=O)[C@@H]1CCC(=O)N1 | inactive |

Lab note: next molecule to report on.
Q: Item under review: OC(CN1CCCCC1)c1cc(-c2ccccc2)on1 (centres undefined) . Reported outcome?
Ans: inactive

====

Experiment: qHTS assay for identifying genotoxic compounds that show differential cytotoxicity against isogenic chicken DT40 cell lines with known DNA damage response pathways - wild type cell line (AID 743012); also: nearly all actives have a fitted effect of over 60% in size
Details: DT40 wild type chicken cells viability, CellTiter-Glo, 40 h; series mostly up to 68.4 µM
Text: U.S. Tox21 Program National Center for Advancing Translational Sciences [NCATS] NIH Chemical Genomics Center [NCGC] U.S. Environmental Protection Agency [EPA] National Institutes of Environmental Health Sciences [NIEHS] National Toxicology Program [NTP] U.S. Food and Drug Administration [FDA] Tox21 Assay Overview: DNA repair pathways play a critical role in cellular homeostasis by repairing DNA damage induced by endogenous processes and xenobiotics. […]
Records with an inconclusive call do not appear. Active and inactive are the calls of the source. Calls come from the whole dose curve; as a rule, active = well fitted cell-killing curve with a large enough effect in the repeat runs; inconclusive = weak or mixed curves, or effect the other way; inactive = no such curve, though single readings can be large or run the other way.
Permitted responses: active, inactive

Worked set:
| MOLECULE | ASSIGNED_CATEGORY |
| --- | --- |
| CC1(C)S[C@@H]2[C@H](NC(=O)C(C(=O)Oc3ccc4c(c3)CCC4)c3ccccc3)C(=O)N2[C@H]1C(=O)O (stereo partly drawn) | inactive |
| CCOC(=O)CN[C@@H](C(=O)N1CC[C@H]1C(=O)NCc1ccc(/C(N)=N/O)cc1)C1CCCCC1 | inactive |
| Cc1cccc(C)c1NC(=O)NC1=CCCN1C | inactive |
| CNCC(O)c1ccc(OC(=O)C(C)(C)C)c(OC(=O)C(C)(C)C)c1 (stereo not drawn) | active |
| CCN(CC)c1ccc(C(=C2C=CC(=[N+](CC)CC)C=C2)c2ccccc2)cc1 | active |

Q: Which outcome did this test record for the molecule CCCCCCCCCCCCCCCCOCCOCCOCCOCCOCCOCCOCCOCCOCCOCCOCCOCCOCCOCCOCCOCCOCCOCCOCCOCCO ?
Ans: active

Q: Which outcome did this test record for the molecule C#C[C@]1(OC(C)=O)CC[C@H]2[C@@H]3CCC4=CC(=O)CC[C@@H]4[C@H]3CC[C@@]21C ?
Ans: active

====

Target: Glucocorticoid receptor (Homo sapiens)
Assay: qHTS assay to identify small molecule antagonists of the glucocorticoid receptor (GR) signaling pathway (AID 720692)
Conditions: GR-bla HeLa, beta-lactamase FRET ratio, dexamethasone-stimulated, 18 h; series mostly up to 58.5 µM
Inconclusive results are not listed. Active and inactive are the calls of the source. The call rests on the fitted dose curve; in most records, active means well fitted inhibition curve with a large enough effect in the signal ratio in the repeat runs (not every such curve was filed as active); inconclusive means weak or mixed curves, or effect the other way; inactive means no such curve, though single readings can be large or run the other way; the % refers to the signal ratio.
Permitted responses: Y = active, N = inactive

Worked set:
| COMPOUND | ASSIGNED_CATEGORY |
| --- | --- |
| C[Se]CCC(N)C(=O)O (centres undefined) | N |
| CO[C@H]1C[C@@H]2CC[C@@H](C)[C@@](O)(O2)C(=O)C(=O)N2CCCC[C@H]2C(=O)O[C@H]([C@H](C)C[C@@H]2CC[C@@H](OCCO)[C@H](OC)C2)CC(=O)[C@H](C)/C=C(\C)[C@@H](O)[C@@H](OC)C(=O)[C@H](C)C[C@H](C)/C=C/C=C/C=C/1C | Y |
| CN(C)CC/C=C1/c2ccccc2CSc2ccccc21 | N |
| CC1C(=O)CC2C3(C)CCC2(C(C)C(=O)O)C(=O)C13 (centres undefined) | N |
| O=P(O)(O)C(Sc1ccc(Cl)cc1)P(=O)(O)O | N |
| O=C(O)c1ccc(OCCn2ccnc2)cc1 | N |

Q: Which outcome did this test record for the compound C[C@@H](O)[C@H]1C(=O)N2C(C(=O)[O-])=C(SC3Cn4cnc[n+]4C3)[C@H](C)[C@H]12 (some centres undefined) ?
Ans: N

Q: Which outcome did this test record for the compound Cc1cccc(C)c1Nc1ncccc1C(=O)O ?
Ans: N

Q: Which outcome did this test record for the compound C[C@]12CC[C@@H]3c4ccc(OS(=O)(=O)O)cc4CC[C@H]3[C@@H]1CCC2=O ?
Ans: N

Q: Which outcome did this test record for the compound C=CCSSSCC=C ?
Ans: N

====

Molecular target: Peroxisome proliferator-activated receptor gamma (Homo sapiens) (UniProt P37231)
Sequence (P37231 whole entry, looked up): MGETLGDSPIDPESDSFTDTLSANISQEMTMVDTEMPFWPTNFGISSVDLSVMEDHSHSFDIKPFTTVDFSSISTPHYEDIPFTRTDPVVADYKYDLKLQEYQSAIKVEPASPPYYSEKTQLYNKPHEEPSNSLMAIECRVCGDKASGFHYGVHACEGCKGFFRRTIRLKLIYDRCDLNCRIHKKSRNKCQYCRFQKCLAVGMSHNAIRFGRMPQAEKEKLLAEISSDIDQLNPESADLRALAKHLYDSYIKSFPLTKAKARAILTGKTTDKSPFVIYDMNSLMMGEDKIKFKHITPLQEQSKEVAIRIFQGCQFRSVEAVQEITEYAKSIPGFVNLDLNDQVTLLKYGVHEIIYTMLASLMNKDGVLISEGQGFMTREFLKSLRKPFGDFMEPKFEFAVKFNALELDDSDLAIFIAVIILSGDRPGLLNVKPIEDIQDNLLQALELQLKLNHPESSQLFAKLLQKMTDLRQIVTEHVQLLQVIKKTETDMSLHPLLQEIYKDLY
Test: qHTS assay to identify small molecule agonists of the peroxisome proliferator-activated receptor gamma (PPARg) signaling pathway (AID 743094); also: % is scaled to controls: 0 for no effect and ±100 for the full control effect
Settings: HEK293H PPARg-UAS-bla, beta-lactamase FRET ratio, 17 h; series mostly up to 57 µM
Records with an inconclusive call do not appear. Calls of active or inactive are those of the source. Calls follow the shape of the dose curve; as a rule, active = well fitted activation curve with a large enough effect in the signal ratio in the repeat runs (not every such curve was filed as active); inconclusive = weak or mixed curves, or effect the other way; inactive = no such curve, though single readings can be large or run the other way; the % refers to the signal ratio. Positions of bridges follow the written chain, without caps; N, C: chain ends. Non-standard residues stand in square brackets, D forms with d. Residues, ends and D or L forms follow the SMILES beside them. *: point of attachment. X2 = CC[C@H](C)CCCCC(=O)*; Dab = NCC[C@H](N)C(=O)O
ASSAY_METRIC: outcome

Consider the worked cases shown below.
| MOLECULE | ASSAY_RESULT |
| --- | --- |
| CC(=O)Oc1c(C)cc(OCC(O)CNC(C)C)c(C)c1C (configuration not stated) | inactive |
| CC[C@H](C)CCCCC(=O)N[C@@H](CCN)C(=O)N[C@H](C(=O)N[C@@H](CCN)C(=O)N[C@H]1CCNC(=O)[C@H]([C@@H](C)O)NC(=O)[C@H](CCN)NC(=O)[C@H](CCN)NC(=O)[C@H](CC(C)C)NC(=O)[C@@H](CC(C)C)NC(=O)[C@H](CCN)NC1=O)[C@@H](C)O (X2-[Dab]T[Dab][Dab][Dab][dL]L[Dab][Dab]T; lactam 4-C) | inactive |
| C[C@]12CCC(=O)C=C1CC[C@@H]1[C@@H]2[C@@H](O)C[C@@]2(C)[C@H]1CC[C@]2(O)C(=O)COP(=O)(O)O | inactive |
| CN1CCC(OC(=O)C(Oc2ccc(Cl)cc2)Oc2ccc(Cl)cc2)CC1 | inactive |
| CCN(CC)CCOCCOC(=O)C(CC)(CC)c1ccccc1 | inactive |

Q: Item under review: CS(=O)(=O)NC(=O)CCC/C=C\C[C@H]1C(=O)C[C@@H](O)[C@@H]1/C=C/[C@H](O)COc1ccccc1 . Reported outcome?
Ans: inactive

Q: Item under review: CCN(CC)CCOC(=O)c1ccc(N)cc1Cl . Reported outcome?
Ans: inactive
